B1: ZNF263 (parent)
chain: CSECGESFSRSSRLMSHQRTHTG

- Variants of: B1
- method: protein stability index of a GFP-peptide fusion (GPS, HEK-293T) (PSI 1-6); higher = more stable;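 also: lentivirally expressed fusions sorted by FACS into six bins by GFP to DsRed ratio, PSI derived from sequencing read proportions per bin multiplied by bin number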
- experimental.parameters: c terminus: native
protein stability index by entry:
Form rule: numeric answer, no unit written next to it.

Check out these entries, answers already filled in.
> print(dat)
    mut        measured.property  observed.value
1   S2D  protein stability index            2.99
2  R10G  protein stability index            2.95
3   E6V  protein stability index            2.97

Qu. Which protein stability index reading was recorded for the variant T22I ?
Ans. 2.95

Qu. Which protein stability index reading was recorded for the variant E6S ?
Ans. 2.94

Qu. Which protein stability index reading was recorded for the variant Q18L ?
Ans. 3.02

Data origin: the supplement of paper PMC10567573
